biological target: T1, macaque c-Met on macaque epithelial cell 4MBr-5 (macaque); experiment: flow cytometry on 4MBr-5 macaque epithelial cells
T1 construct: whole, on cells; also called 4MBr-5 cell
Quick list: pEC50 per entry.
Remember the convention: pEC50 equals -log10 of concentration in molar.

The recorded pEC50 for 1B-1B6-Fc (antibody, human IgG1, V domains shown, also called anti-human c-Met VHH-Fc chimeric antibody 1B-1B6-Fc) VH: QVQLVESGGDSVQAGGSLRLSCAASAHAYSSGCMGWFRQAPGKGREGVATIYTRNDFTYYSDSVKGRFTISRDDAKNTVYLQVNSLKAEDTAMYYCAAGSPFRYAGAWNVCGLKEEDYNYWGQGTLVTVSS is 9.17

The recorded pEC50 for 1B-3B11-Fc (antibody, human IgG1, V domains shown, Expressed in CHO; also called anti-human c-Met VHH-Fc chimeric antibody 1B-3B11-Fc) VH: QVQLVESGGGSVQAGGSLRLSCVVSGYTYSSVAWFRQTPGKEREGVAVINPGGDNTDYTYAVKGRFTISRDSAKSTVFLQMNNLESEDTAMYYCAAGRTFGGTWMDRNKWKYWGQGTLVTVSS is 9.13

All figures here come from patent US20260146094A1.
